Target: BCL2 WT (Homo sapiens (Human), UniProt P10415)
Experiment: TR-FRET competitive binding assay, BCL2 WT
Conditions: Ki determined from IC50, read-out: TR_FRET EKI_Bcl2 WT
# Lookup of reported Ki keyed by entry
quantity_kind: Ki (nM)

- Cc1c(N(C(=O)c2cc(-c3cc4c(cc3C(=O)N3Cc5ccccc5C[C@H]3C)CN(C(=O)Cc3ccc(N5CCN(CC(F)(F)F)CC5)cc3)CC4)n(C)c2C)c2ccc(O)cc2)cc(C#N)n1C [Example 23]: 0.58
- Cc1c(N(C(=O)c2cc(-c3cc4c(cc3C(=O)N3Cc5ccccc5C[C@H]3C)CN(C(=O)Cc3ccc(OCCC5CCOCC5)cc3)CC4)n(C)c2C)c2ccc(O)cc2)cc(C#N)n1C [Example 27]: 0.8
- Cc1c(N(C(=O)c2cc(-c3cc4c(cc3C(=O)N3Cc5ccccc5C[C@H]3C)CN(C(=O)Cc3ccc(CCN5CCC(F)(F)CC5)cc3)CC4)n(C)c2C)c2ccc(O)cc2)cc(C#N)n1C [Example 51]: 0.22

----------
Molecular target: BCL2 D103Y (Homo sapiens, UniProt P10415, D103Y)
Experiment: TR-FRET competitive binding assay, BCL2 D103Y
Settings: Ki determined from IC50, read-out: TR_FRET EKI_Bcl2 D103Y
quantity_kind: Ki (nM)

• Cc1c(C(=O)N(c2ccc(O)cc2)c2cc(C#N)n(C(F)F)c2C)cc(-c2cc3c(cc2C(=O)N2Cc4ccccc4C[C@H]2CN2CCCCC2)CN(C(=O)Cc2ccc(OCCN4C[C@@H](C)O[C@@H](C)C4)cc2)CC3)n1C [Example 129] = 0.24
• Cc1c(N(C(=O)c2cc(-c3cc4c(cc3C(=O)N3Cc5ccccc5C[C@H]3CN3CCCCC3)CN(C(=O)Cc3ccc(OCCC5CCOCC5)cc3)CC4)n(C)c2C)c2ccc(O)cc2)cc(C#N)n1C [Example 66] = 0.23
• Cc1c(N(C(=O)c2cc(-c3cc4c(cc3C(=O)N3Cc5ccccc5C[C@H]3CN3CCCCC3)CN(C(=O)COc3ccccc3)CC4)n(C)c2C)c2ccc(O)cc2)cc(C#N)n1C [Example 133] = 0.38

----------
Assay: Pharmacokinetics in SCID mice
Assay type: in vivo
Conditions: mouse, blood, 25 mg/kg IV bolus, area under curve over 24 h, read-out: PK parameters AUC24
Reported values of AUC for individual entries
quantity_kind: AUC (µM·h)

• COC[C@@H]1Cc2ccccc2CN1C(=O)c1cc2c(cc1-c1cc(C(=O)N(c3ccc(O)cc3)c3cc(C#N)n(C)c3C)c(C)n1C)CCN(C(=O)Cc1ccc(OCCC3CCOCC3)cc1F)C2 [Example 52] = 33.7
• Cc1c(N(C(=O)c2cc(-c3cc4c(cc3C(=O)N3Cc5ccccc5C[C@H]3C)CN(C(=O)Cc3ccc(N5CCN(CC(F)(F)F)CC5)cc3)CC4)n(C)c2C)c2ccc(O)cc2)cc(C#N)n1C [Example 23] = 10.8
• Cc1c(N(C(=O)c2cc(-c3cc4c(cc3C(=O)N3Cc5ccccc5C[C@H]3C)CN(C(=O)Cc3ccc(OCCN5CCO[C@H](C)C5)cc3)CC4)n(C)c2C)c2ccc(O)cc2)cc(C#N)n1C [Example 56] = 30.5
• Cc1c(N(C(=O)c2cc(-c3cc4c(cc3C(=O)N3Cc5ccccc5C[C@H]3C)CN(C(=O)Cc3ccc(C5CCN(CCF)CC5)c(F)c3)CC4)n(C)c2C)c2ccc(O)cc2)cc(C#N)n1C [Example 28] = 38.3
• Cc1c(N(C(=O)c2cc(-c3cc4c(cc3C(=O)N3Cc5ccccc5C[C@H]3C)CN(C(=O)Cc3ccc(OCCN5CCSCC5)cc3)CC4)n(C)c2C)c2ccc(O)cc2)cc(C#N)n1C [Example 55] = 11.4

----------
Target: BCL2 G101V (Homo sapiens, UniProt P10415, G101V)
Assay: TR-FRET competitive binding assay, BCL2 G101V
Conditions: BCL2 G101V; Ki determined from IC50; read-out: TR_FRET EKI_Bcl2 G101V
The following compounds are listed with their measured Ki values.
quantity_kind: Ki (nM)

• Cc1c(N(C(=O)c2cc(-c3cc4c(cc3C(=O)N3Cc5ccccc5C[C@H]3C)CN(C(=O)Cc3ccc(OCCC5CCOCC5)cc3)CC4)n(C)c2C)c2ccc(O)cc2)cc(C#N)n1C [Example 27] = 1.2
• COc1ncc(N(C(=O)c2cc(-c3cc4c(cc3C(=O)N3Cc5ccccc5C[C@H]3C)CN(C(=O)Cc3ccc(OCCN5CCOCC5)cc3F)CC4)n(C)c2C)c2ccc(O)cc2)cc1F [Example 111] = 0.8
• Cc1c(N(C(=O)c2cc(-c3cc4c(cc3C(=O)N3Cc5ccccc5C[C@H]3C)CN(C(=O)Cc3ccc(CCN5CCOCC5)cc3)CC4)n(C)c2C)c2ccc(O)cc2)cc(C#N)n1C [Example 38] = 0.5

----------
Molecular target: BCL2 D103Y (Homo sapiens, UniProt P10415, D103Y)
Assay: TR-FRET competitive binding assay, BCL2 D103Y
Settings: Ki determined from IC50, read-out: TR_FRET EKI_Bcl2 D103Y
Checkbox rule: Ki lower than 0.1 nM = Satisfied; Ki not lower than 0.1 nM = Not satisfied.

- Cc1c(N(C(=O)c2cc(-c3cc4c(cc3C(=O)N3Cc5ccccc5C[C@H]3CN3CC[C@H](C)C3)CN(C(=O)Cc3ccc(OCCN5CCOCC5)cc3F)CC4)n(C)c2C)c2ccc(O)cc2)cc(C#N)n1C: Satisfied
- Cc1c(C(=O)N(c2ccccc2)c2cnn(C)c2)cc(-c2cc3c(cc2C(=O)N2Cc4ccccc4C[C@H]2C)CN(C(=O)Cc2ccc(OCCN4CCOCC4)cc2)CC3)n1C: Satisfied
- CCN(C[C@@H]1Cc2ccccc2CN1C(=O)c1cc2c(cc1-c1cc(C(=O)N(c3ccc(O)cc3)c3cc(C#N)n(C)c3C)c(C)n1C)CCN(C(=O)Cc1ccc(OCCN3CCOCC3)cc1F)C2)C(C)C: Not satisfied
- Cc1c(N(C(=O)c2cc(-c3cc4c(cc3C(=O)N3Cc5ccccc5C[C@H]3CN3CCCCC3)CN(C(=O)Cc3ccc(OCCN5CCC(F)(F)C5)cc3)CC4)n(C)c2C)c2ccc(O)cc2)cc(C#N)n1C: Not satisfied
- Cc1c(N(C(=O)c2cc(-c3cc4c(cc3C(=O)N3Cc5ccccc5C[C@H]3CN3CCCC3)CN(C(=O)Cc3ccc(OCCC5CCOCC5)cc3)CC4)n(C)c2C)c2ccc(O)cc2)cc(C#N)n1C: Not satisfied
- Cc1cc(OCCN2CCOCC2)c(F)cc1CC(=O)N1CCc2cc(-c3cc(C(=O)N(c4ccc(O)cc4)c4cc(C#N)n(C)c4C)c(C)n3C)c(C(=O)N3Cc4ccccc4C[C@H]3CN3CCCCC3)cc2C1: Not satisfied
- Cc1c(C(=O)N(c2ccccc2)c2cc(F)cc(C#N)c2)cc(-c2cc3c(cc2C(=O)N2Cc4ccccc4C[C@H]2C)CN(C(=O)Cc2ccc(OCCN4CCOCC4)cc2)CC3)n1C: Not satisfied
- CCn1cc(N(C(=O)c2cc(-c3cc4c(cc3C(=O)N3Cc5ccccc5C[C@H]3C)CN(C(=O)Cc3ccc(OCCN5CCOCC5)cc3)CC4)n(C)c2C)c2ccccc2)c(C)n1: Not satisfied
- Cc1c(C(=O)N(c2ccc(O)cc2)c2cc(C#N)n(C(C)C)c2C)cc(-c2cc3c(cc2C(=O)N2Cc4ccccc4C[C@H]2C)CN(C(=O)Cc2ccc(OCCN4CCOCC4)cc2)CC3)n1C: Not satisfied
- Cc1c(N(C(=O)c2cc(-c3cc4c(cc3C(=O)N3Cc5ccccc5C[C@H]3C)CN(C(=O)Cc3ccc(OCCN5CC(F)C5)cc3)CC4)n(C)c2C)c2ccc(O)cc2)cc(C#N)n1C: Not satisfied

----------
Tested on: BCL2 G101V
Experiment: TR-FRET competitive binding assay, BCL2 G101V
Set-up: species or system human
Settings: ratio Ki BCL2 G101V / Ki BCL2 WT
quantity_kind: TR_FRET EKI G101V/WT selectivty ratio

- Cc1c(N(C(=O)c2cc(-c3cc4c(cc3C(=O)N3Cc5ccccc5C[C@H]3CN3CCCCC3)CN(C(=O)C(F)(F)c3ccc(OCCN5CCOCC5)cc3)CC4)n(C)c2C)c2ccc(O)cc2)cc(C#N)n1C: 15.3
- Cc1c(N(C(=O)c2cc(-c3cc4c(cc3C(=O)N3Cc5ccccc5C[C@H]3C)CN(C(=O)Cc3ccc(OCCN5CCOC6(CCCC6)C5)cc3)CC4)n(C)c2C)c2ccc(O)cc2)cc(C#N)n1C: 5.4
- Cc1c(N(C(=O)c2cc(-c3cc4c(cc3C(=O)N3Cc5ccccc5C[C@H]3C)CN(C(=O)c3n[nH]c5ccccc35)CC4)n(C)c2C)c2ccc(O)cc2)cc(C#N)n1C: 9.1
- COc1cccc(CC(=O)N2CCc3cc(-c4cc(C(=O)N(c5ccc(O)cc5)c5cc(C#N)n(C)c5C)c(C)n4C)c(C(=O)N4Cc5ccccc5C[C@H]4C)cc3C2)c1: 5.7
- Cc1c(N(C(=O)c2cc(-c3cc4c(cc3C(=O)N3Cc5ccccc5C[C@H]3C)CN(C(=O)Cc3ccc(OCCN5CCOCC5)cc3Cl)CC4)n(C)c2C)c2ccc(O)cc2)cc(C#N)n1C: 2.4

Values were extracted from patent US20250179047A1.
